tested on: Staphylococcus aureus; test: In vitro antibacterial activity against Staphylococcus aureus Oxford; format: functional
property-name: MIC (µg/mL)

Worked cases, answers included:
In [3]: df
Out[3]:
                                   molecule  recorded_measurement
0  COc1ccc(C(=O)CC(=O)C[C@@H]2OC[C@H](C[C@@H]3O[C@H]3[C@@H](C)[C@H](C)O)[C@@H](O)[C@H]2O)cn1                     1
1  C/C(=C\C(=O)OCCCCCCCCC(=O)O)C[C@@H]1OC[C@H](C[C@@H]2O[C@H]2[C@@H](C)[C@H](C)O)[C@@H](O)[C@H]1O [MUPIROCIN]                  0.13
2  C[C@H]([C@@H]1O[C@H]1C[C@H]1CO[C@@H](CC(=O)CC(=O)c2ccsc2)[C@H](O)[C@@H]1O)[C@H](C)O                     1

[A] C[C@H]([C@@H]1O[C@H]1C[C@H]1CO[C@@H](CC(=O)CC(=O)c2ccoc2)[C@H](O)[C@@H]1O)[C@H](C)O
[B] COc1ccc(/C=C/C(=O)C[C@@H]2OC[C@H](C[C@@H]3O[C@H]3[C@@H](C)[C@H](C)O)[C@@H](O)[C@H]2O)cc1
query: Select the item with the higher value of MIC from the options A and B listed. API: response body contains the label of the selected item.
result: B

---

Test system Isoleucine--tRNA ligase (Haemophilus influenzae), MIC listed for each of the compounds.
Numeric answer only, unit µg/mL assumed.

Worked cases, answers included:
In [3]: df
Out[3]:
                              smiles_record  recorded_measurement
0  COc1ccc(C(=O)/C=C(\C)C[C@@H]2OC[C@H](C[C@@H]3O[C@H]3[C@@H](C)[C@H](C)O)[C@@H](O)[C@H]2O)cc1                  0.03
1  COc1ccc(C(=O)CC(=O)C[C@@H]2OC[C@H](C[C@@H]3O[C@H]3[C@@H](C)[C@H](C)O)[C@@H](O)[C@H]2O)cc1                  0.06
2  C[C@H]([C@@H]1O[C@H]1C[C@H]1CO[C@@H](CC(=O)CC(=O)c2ccc(F)cc2)[C@H](O)[C@@H]1O)[C@H](C)O                  0.06

Attention now shifts to the item below.
query: Item: C[C@H]([C@@H]1O[C@H]1C[C@H]1CO[C@@H](CC(=O)CC(=O)c2ccc(N(C)C)nc2)[C@H](O)[C@@H]1O)[C@H](C)O Test system: Isoleucine--tRNA ligase (Haemophilus influenzae) Read-out: MIC Value: ?
result: 0.06

---

Recorded MIC for the following molecules
system: Isoleucine--tRNA ligase (Streptococcus pneumoniae); experiment: In vitro antibacterial activity against isoleucyl-tRNA synthetase from Streptococcus pneumoniae PU7
Numeric answer only, unit µg/mL assumed.

                              smiles_record  recorded_measurement
0  C[C@H]([C@@H]1O[C@H]1C[C@H]1CO[C@@H](CC(=O)CC(=O)c2ccc(N(C)C)nc2)[C@H](O)[C@@H]1O)[C@H](C)O                   0.5
1  COc1ccc(C(=O)CC(=O)C[C@@H]2OC[C@H](C[C@@H]3O[C@H]3[C@@H](C)[C@H](C)O)[C@@H](O)[C@H]2O)cc1                  0.25
2  C[C@H]([C@@H]1O[C@H]1C[C@H]1CO[C@@H](CC(=O)CC(=O)c2ccc(F)cc2)[C@H](O)[C@@H]1O)[C@H](C)O                  0.13

Attention now shifts to the item below.
query: Quick one: MIC for COc1ccc(C(=O)/C=C(\C)C[C@@H]2OC[C@H](C[C@@H]3O[C@H]3[C@@H](C)[C@H](C)O)[C@@H](O)[C@H]2O)cc1 ?
result: 0.25

---

tested on: Staphylococcus aureus; test: In vitro antibacterial activity against Staphylococcus aureus Oxford; type: functional
property-name: MIC (µg/mL)

[I] C[C@H]([C@@H]1O[C@H]1C[C@H]1CO[C@@H](CC(=O)CC(=O)C2=CCCCC2)[C@H](O)[C@@H]1O)[C@H](C)O
[II] C[C@H]([C@@H]1O[C@H]1C[C@H]1CO[C@@H](CC(=O)CC(=O)c2cnn(C)c2)[C@H](O)[C@@H]1O)[C@H](C)O
[III] C[C@H]([C@@H]1O[C@H]1C[C@H]1CO[C@@H](CC(=O)CC(=O)c2ccccc2)[C@H](O)[C@@H]1O)[C@H](C)O
query: In a descending ranking, list each entry from above by its MIC, from the largest value down to the smallest. Use the labels to give the requested order.
result: II, I, III

[1] C[C@H]([C@@H]1O[C@H]1C[C@H]1CO[C@@H](CC(=O)CC(=O)c2cnc(N(C)C)nc2)[C@H](O)[C@@H]1O)[C@H](C)O
[2] CCCCC(=O)CC(=O)C[C@@H]1OC[C@H](C[C@@H]2O[C@H]2[C@@H](C)[C@H](C)O)[C@@H](O)[C@H]1O
[3] CCOC(OCC)c1ccc(C(=O)CC(=O)C[C@@H]2OC[C@H](C[C@@H]3O[C@H]3[C@@H](C)[C@H](C)O)[C@@H](O)[C@H]2O)cc1
query: Number of compounds to sort: 3. Sort criterion: MIC, ascending. Use the labels to give the requested order.
result: 3, 1, 2
(3: 1 µg/mL, 1: 2 µg/mL, 2: 8 µg/mL)

---

Recorded AUC for the following molecules
system: Mus musculus; assay: The area under curve in vivo in mouse blood level after oral administration at dose 50 mk/kg e-1; format: ADME, organism-based
Numeric answer only, unit ng·h/mL assumed.

Worked cases, answers included:
                              smiles_record  recorded_measurement
0  C[C@H]([C@@H]1O[C@H]1C[C@H]1CO[C@@H](CC(=O)CC(=O)c2ccc(N(C)C)nc2)[C@H](O)[C@@H]1O)[C@H](C)O                  7180
1  C[C@H]([C@@H]1O[C@H]1C[C@H]1CO[C@@H](CC(=O)CC(=O)c2ccc(F)cc2)[C@H](O)[C@@H]1O)[C@H](C)O                  4930
2  COc1ccc(C(=O)/C=C(\C)C[C@@H]2OC[C@H](C[C@@H]3O[C@H]3[C@@H](C)[C@H](C)O)[C@@H](O)[C@H]2O)cc1                  1770

Attention now shifts to the item below.
query: Item: COc1ccc(C(=O)CC(=O)C[C@@H]2OC[C@H](C[C@@H]3O[C@H]3[C@@H](C)[C@H](C)O)[C@@H](O)[C@H]2O)cc1 Test system: Mus musculus Read-out: AUC Value: ?
result: 5920

---

Test system Isoleucine--tRNA ligase (Streptococcus pyogenes), MIC listed for each of the compounds.
Numeric answer only, unit µg/mL assumed.

Worked cases, answers included:
>>> print(df.to_string())
                              smiles_record  recorded_measurement
0  COc1ccc(C(=O)/C=C(\C)C[C@@H]2OC[C@H](C[C@@H]3O[C@H]3[C@@H](C)[C@H](C)O)[C@@H](O)[C@H]2O)cc1                  0.25
1  COc1ccc(C(=O)CC(=O)C[C@@H]2OC[C@H](C[C@@H]3O[C@H]3[C@@H](C)[C@H](C)O)[C@@H](O)[C@H]2O)cc1                  0.25
2  C[C@H]([C@@H]1O[C@H]1C[C@H]1CO[C@@H](CC(=O)CC(=O)c2ccc(F)cc2)[C@H](O)[C@@H]1O)[C@H](C)O                  0.25

Attention now shifts to the item below.
query: Quick one: MIC for C[C@H]([C@@H]1O[C@H]1C[C@H]1CO[C@@H](CC(=O)CC(=O)c2ccc(N(C)C)nc2)[C@H](O)[C@@H]1O)[C@H](C)O ?
result: 1
